subject_of_test: Tyrosine-protein phosphatase non-receptor type 1 (Homo sapiens, UniProt P18031)
assay_overview: Inhibition of PTP1B (unknown origin)-mediated pNPP hydrolysis to 4-nitrophenol after 60 mins by spectrophotometric analysis
pKi: −log10 of the molar value.
metric: pKi

Worked set:
O=C(O)C(=O)Nc1ccc(CC(c2nc3ccccc3[nH]2)S(=O)(=O)Nc2ccc(F)cc2)cc1 (stereo not drawn) :: 4.17
O=C(O)C(=O)Nc1ccc(CC(c2nc3ccccc3o2)S(=O)(=O)N(Cc2ccc(OC(F)(F)F)cc2)Cc2ccc(OC(F)(F)F)cc2)cc1 (stereo not drawn) :: 4.77
CC(=O)NS(=O)(=O)C(Cc1ccc(NC(=O)C(=O)O)cc1)c1nc2ccccc2o1 (stereo not drawn) :: 4.20
NS(=O)(=O)C(Cc1ccc(NC(=O)C(=O)O)cc1)c1nc2ccccc2o1 (stereo not drawn) :: 3.48
O=C(O)C(=O)Nc1ccc(CC(c2nc3ccccc3o2)S(=O)(=O)Nc2ccc(C(F)(F)F)cc2)cc1 (stereo not drawn) :: 4.63

I: O=C(O)C(=O)Nc1ccc(CC(c2nc3ccccc3o2)S(=O)(=O)N(Cc2cccc(C(F)(F)F)c2)Cc2cccc(C(F)(F)F)c2)cc1 (stereo not drawn)
II: O=C(O)C(=O)Nc1ccc(CC(c2nc3ccccc3o2)S(=O)(=O)N(Cc2ccc(C(F)(F)F)cc2)Cc2ccc(C(F)(F)F)cc2)cc1 (stereo not drawn)
Returns: the label, I or II , whose recorded pKi is the lower number. Output the label that corresponds to your choice.
I
(I: 4.46, II: 5.11)

* * *

subject_of_test: Tyrosine-protein phosphatase non-receptor type 2 (Homo sapiens, UniProt P17706)
Sequence (P17706 whole entry): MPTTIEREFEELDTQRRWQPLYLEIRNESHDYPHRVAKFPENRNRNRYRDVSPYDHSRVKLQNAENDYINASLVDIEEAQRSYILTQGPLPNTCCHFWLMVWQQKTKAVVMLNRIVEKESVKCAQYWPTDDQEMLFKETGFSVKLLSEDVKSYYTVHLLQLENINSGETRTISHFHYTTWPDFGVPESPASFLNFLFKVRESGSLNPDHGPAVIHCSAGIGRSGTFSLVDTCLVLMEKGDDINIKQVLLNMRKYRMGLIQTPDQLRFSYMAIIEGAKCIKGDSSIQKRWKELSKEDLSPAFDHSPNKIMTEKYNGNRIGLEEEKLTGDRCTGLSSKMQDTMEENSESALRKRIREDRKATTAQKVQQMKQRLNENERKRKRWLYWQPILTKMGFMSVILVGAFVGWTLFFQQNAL
metric: Ki (µM)

O=C(O)C(=O)Nc1ccc(CC(c2nc3ccccc3o2)S(=O)(=O)N(Cc2ccc(C(F)(F)F)cc2)Cc2ccc(C(F)(F)F)cc2)cc1 (stereo not drawn) :: 12.5
Cc1ccc(NS(=O)(=O)C(Cc2ccc(NC(=O)C(=O)O)cc2)c2nc3ccccc3o2)cc1 (stereo not drawn) :: 9.2
O=C(O)C(=O)Nc1ccc(CC(c2nc3ccccc3o2)S(=O)(=O)NC(=O)c2ccc(Cl)cc2)cc1 (stereo not drawn) :: 13.1

* * *

subject_of_test: Tyrosine-protein phosphatase non-receptor type 1 (Homo sapiens, UniProt P18031)
Sequence (P18031 whole entry): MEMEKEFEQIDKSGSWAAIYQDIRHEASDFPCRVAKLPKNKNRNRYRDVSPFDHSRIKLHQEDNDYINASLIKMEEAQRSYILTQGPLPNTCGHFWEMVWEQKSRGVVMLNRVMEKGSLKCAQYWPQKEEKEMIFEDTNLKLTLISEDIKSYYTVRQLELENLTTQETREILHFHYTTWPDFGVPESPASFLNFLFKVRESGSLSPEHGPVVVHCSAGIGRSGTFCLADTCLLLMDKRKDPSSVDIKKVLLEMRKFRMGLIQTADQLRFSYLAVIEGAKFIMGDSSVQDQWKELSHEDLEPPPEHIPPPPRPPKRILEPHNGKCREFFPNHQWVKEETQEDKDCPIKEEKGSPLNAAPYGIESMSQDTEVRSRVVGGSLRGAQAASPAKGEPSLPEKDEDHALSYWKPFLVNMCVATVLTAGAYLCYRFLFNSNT
assay_overview: Inhibition of PTP1B (unknown origin)-mediated pNPP hydrolysis to 4-nitrophenol after 60 mins by spectrophotometric analysis
metric: Ki (µM)

A: Cc1ccc(NS(=O)(=O)C(Cc2ccc(NC(=O)C(=O)O)cc2)c2nc3ccccc3o2)cc1 (centres undefined)
B: CC(C)(C)NS(=O)(=O)C(Cc1ccc(NC(=O)C(=O)O)cc1)c1nc2ccccc2o1 (centres undefined)
C: O=C(O)C(=O)Nc1ccc(CC(c2nc3ccccc3o2)S(=O)(=O)N(Cc2ccc(F)cc2)Cc2ccc(F)cc2)cc1 (centres undefined)
For the compounds shown above, give the order from largest Ki to smallest. Your task in answering is to list the labels in the requested order.
B, A, C
(B: 228 µM, A: 62 µM, C: 10 µM)
